Sourced from ChEMBL document CHEMBL1145011

# PROTOCOL: Percent oral bioavailability at dose of 25 umol/kg in monkey
# Format: ADME, organism-based
# CONDITION_CONTEXT: primates, in vivo
ATTRIBUTE_MEASURED: bioavailability (%)
Enter your answer as a number in %; do not include the unit.

Please give the documented bioavailability of Cc1onc(NS(=O)(=O)c2ccccc2-c2ccc(-c3ncco3)cc2N(C)C(=O)CC(C)(C)C)c1C
26

====

# PROTOCOL: Area under curve at oral dose of 25 umol/kg in monkey
# Format: ADME
# CONDITION_CONTEXT: simiiformes, in vivo
ATTRIBUTE_MEASURED: AUC (µM·h)
Enter your answer as a number in µM·h; do not include the unit.

Please give the documented AUC of Cc1onc(NS(=O)(=O)c2ccccc2-c2ccc(-c3ncco3)cc2N(C)C(=O)CC(C)(C)C)c1C
41.5
